B1: POU domain, class 2, transcription factor 2, residues 200 to 269; numbered along this chain, P09086 (parent)
chain: LEELEQFARTFKQRRIKLGFTQGDVGLAMGKLYGNDFSQTTISRFEALNLSFKNMCKLKPLLEKWLNDAE

# Variants of: B1
# assay remarks: abundance fitness (aPCA) (normalised: wild type 0, dead -1); higher = more abundant; growth selection in yeast, the domain comes from the species named
# experimental conditions: Homo sapiens
endpoint: abundance fitness
Answers are plain numbers.

primary_sequence=LEELEQFARTEKQRRIKLGFTQGDVGLAMGKLYGNDFSQTTISRFEALNLSFKNMCKLKPLLEKWLNDAE measured_number=-0.977

// for each variant below, give its abundance fitness
1. LEELEQFARTFKQRRIKLGFTQGDVGLAMGKLYGNDFQQTTISRFEALNLSFKNMCKLKPLLEKWLNDAE
2. LEELEQFARTFKQRRIKLGFTQGDVGLAMGKLYGNDFSQTTISRFEALNLSFKNMCNLKPLLEKWLNDAE
3. LEELEQFARTFKQRRIKLGFTQGDVGLAMNKLYGNDFSQTTISRFEALNLSFKNMCKLKPLLEKWLNDAE
4. LEELEQFARTFKQRRIKLGFTQGDVGLAMGKLYGNDFSQTTISRFKALNLSFKNMCKLKPLLEKWLNDAE
5. LEELEQFARTFKQRRIKLGFTQGDAGLAMGKLYGNDFSQTTISRFEALNLSFKNMCKLKPLLEKWLNDAE
6. LEELEQFARTFKQRRLKLGFTQGDVGLAMGKLYGNDFSQTTISRFEALNLSFKNMCKLKPLLEKWLNDAE
7. LEELEQFARTFKQRRIKLGFTQGDVGLAMGKLYGNDFSQTTIFRFEALNLSFKNMCKLKPLLEKWLNDAE

[-0.054, -0.125, 0.019, -0.431, -0.01, -0.042, -0.227]

// for each variant below, give its abundance fitness
1. LEELEQFARTFKQRRIKLGFTQGDVGLAMGKLYGNDFSQTTISRFEALNLSFKNMCKLKPLLEKWLNWAE
2. LEELEQFARTFKQRRFKLGFTQGDVGLAMGKLYGNDFSQTTISRFEALNLSFKNMCKLKPLLEKWLNDAE
3. LEELEQFARTFKQRRIKLGFKQGDVGLAMGKLYGNDFSQTTISRFEALNLSFKNMCKLKPLLEKWLNDAE

1. -0.147
2. -0.141
3. -0.173

Each variant below has a recorded value; state its abundance fitness.
1. LEELEQFARTFKQRRIKLGFTQGDVGLAMGKLYGNDFSQTTISRFEALNLWFKNMCKLKPLLEKWLNDAE
2. LEELEQFARTFKQRRIKLGFTQGDVGLAMGKLYGNDFSQTTISRFEALNLSFKNMCKLKPLLEKWLNDIE
3. LEELEQFARTFKQRRIKLGFTQGDVGLAMGKLYGNWFSQTTISRFEALNLSFKNMCKLKPLLEKWLNDAE
4. LEELEQFARTFKQRRIKLGFTQGDVGLAMGKLYGNDFSQTTISRFEALNLSPKNMCKLKPLLEKWLNDAE
5. LEELEQFARTFKQRRIKLGFTQGDVGLAMGILYGNDFSQTTISRFEALNLSFKNMCKLKPLLEKWLNDAE

-0.907
0.012
-0.052
-0.115
-0.136

Working through the 3 variants below one at a time, give abundance fitness for each.
1. LEELEQFARTKKQRRIKLGFTQGDVGLAMGKLYGNDFSQTTISRFEALNLSFKNMCKLKPLLEKWLNDAE
2. LEELEQFARTFKQRRIKLGFTQGDVGLAMGKLYGNDFTQTTISRFEALNLSFKNMCKLKPLLEKWLNDAE
3. LEELEQFARTFKQRRIKLGFTQGDVGRAMGKLYGNDFSQTTISRFEALNLSFKNMCKLKPLLEKWLNDAE

-0.961
-0.004
0.006

Batch request: abundance fitness for each of the following variants.
1. LEELEQFARTFKQRRIKLGFTQGDVGLAMGKLYGNDFSQTTISRFEALNLSFKNMCKLKPILEKWLNDAE
2. LEELEQFARTFKQRRIKLGFTQGDVGLAMGKLYGNDFSQTTISRFEALNLHFKNMCKLKPLLEKWLNDAE
3. LEELEQFARTFKQRRIKLGFTQGDVGLAMGKLYGNDFSQTTISRFEALNLSFKNMCKLKPCLEKWLNDAE
4. LEELEQFARTFKQRRIKSGFTQGDVGLAMGKLYGNDFSQTTISRFEALNLSFKNMCKLKPLLEKWLNDAE
5. LEELEQFARTFKQRRIKLGFTQGNVGLAMGKLYGNDFSQTTISRFEALNLSFKNMCKLKPLLEKWLNDAE
6. LEELEQFARTFKQRRIKLGFTQGDVGLTMGKLYGNDFSQTTISRFEALNLSFKNMCKLKPLLEKWLNDAE

1: -0.141; 2: -0.049; 3: 0.026; 4: -0.193; 5: -0.091; 6: 0.031

Provide reported abundance fitness for each item, in the same order as listed.
1. LEELEQFARTFKQRRIKLGFTQGDVGLAMGKLYGNDFSQTTISRFEALVLSFKNMCKLKPLLEKWLNDAE
2. GEELEQFARTFKQRRIKLGFTQGDVGLAMGKLYGNDFSQTTISRFEALNLSFKNMCKLKPLLEKWLNDAE
3. LEELEYFARTFKQRRIKLGFTQGDVGLAMGKLYGNDFSQTTISRFEALNLSFKNMCKLKPLLEKWLNDAE
4. LEELEQFARTFKQRRIKLGFCQGDVGLAMGKLYGNDFSQTTISRFEALNLSFKNMCKLKPLLEKWLNDAE

1: -0.091; 2: 0.01; 3: -0.056; 4: -0.212
